System: PPARg homodimer (NR concentration 180 nM)
Experiment: PBM binding z-score (relative to random genomic background probes); higher = stronger binding; sequences stand for … in GC…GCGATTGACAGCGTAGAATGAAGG
Class (by PBM binding z-score) -- lower bin (below 0.08), middle bin (0.08 to below 1), upper bin (1 or more)

Answered examples (5):
>>> group("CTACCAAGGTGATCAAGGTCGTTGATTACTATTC")
"middle bin"
>>> group("AGAATGCGGTTACCAAAGATCAGGGAAACGCTTG")
"lower bin"
>>> group("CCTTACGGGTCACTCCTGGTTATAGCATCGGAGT")
"upper bin"
>>> group("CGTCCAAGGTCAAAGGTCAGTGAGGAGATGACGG")
"upper bin"
>>> group("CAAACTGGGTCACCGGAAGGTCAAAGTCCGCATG")
"upper bin"

The entry to classify is TAGCCTAGATCATGGGCCAGTATACCACGCGAAC ; which class holds it?
lower bin

// return the class label for TCAGACAGGTGAAGGTAAATCAGGTACGCAGTCG
upper bin

----------
Tested on: RXRa DBDmut IVT, anti-RXR (DBD mutation: RXRa K156A/R161A, NR concentration 90 nM)
Test: PBM binding z-score (relative to random genomic background probes); higher = stronger binding; sequences stand for … in GC…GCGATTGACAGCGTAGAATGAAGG
Binary call on PBM binding z-score: criterion met from 0.8 upward, criterion not met beneath that.

Some entries whose results are on file:
>>> group("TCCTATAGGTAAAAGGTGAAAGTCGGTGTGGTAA")
"criterion met"
>>> group("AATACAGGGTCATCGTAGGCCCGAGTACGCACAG")
"criterion met"

Please indicate if the recorded PBM binding z-score for GCAGACAGGTGAAACGGAGGTAACTCAGGGTGGC meets or exceeds 0.8.
criterion not met

Is it the case that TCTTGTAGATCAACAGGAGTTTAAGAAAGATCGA has PBM binding z-score reaching or exceeding 0.8?
criterion not met

----------
Tested on: PPARa:RXRa (NR concentration 270 nM, RXRa partner concentration 90 nM)
Test: PBM binding z-score (relative to random genomic background probes); higher = stronger binding; sequences stand for … in GC…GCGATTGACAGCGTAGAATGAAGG
Result Type: PBM binding z-score
One number for each entry.

Before answering, review these 8 worked examples.
>>> reported_value("ATAGAAAGGTCGACGAGGTGAGTATACACCGTTT")
4.18
>>> reported_value("ACTAGCACGCCAAGGGTCACTCAAGATTAGTCCG")
3.64
>>> reported_value("CAAACTAGGTCGAGAGGTCAAAGTCCGCTTCCCG")
5.6
>>> reported_value("ACTATTAGTTGAGACCAGGGCAACCGATAGGTTG")
0.067
>>> reported_value("CCTAGTTGGTCCAGGTCACACACGCTATAGGTAC")
2.58
>>> reported_value("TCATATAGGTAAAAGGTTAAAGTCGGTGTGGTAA")
5.77
>>> reported_value("GTTATTAGTTGAAAGGGCAACCGAATGATTCTCG")
3.14
>>> reported_value("GCAGACAGCTGAAACGCAGGTAACTCAGGGTGGC")
-0.559

I'm hoping you can list PBM binding z-score for every sequence here, please.
1. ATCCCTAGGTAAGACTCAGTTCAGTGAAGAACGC
2. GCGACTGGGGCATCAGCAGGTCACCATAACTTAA
3. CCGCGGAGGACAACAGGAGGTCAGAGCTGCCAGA

1: -0.0282; 2: 2.79; 3: 2.17

Provide the reported PBM binding z-score of each entry below, same order.
1. AGTCAAAGTTCAGGACGAGGTAACGGAAAGCACG
2. CGAACTAGGTCCAGGACAGTGAATCTCCGCACGC
3. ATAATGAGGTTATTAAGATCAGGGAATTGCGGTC
4. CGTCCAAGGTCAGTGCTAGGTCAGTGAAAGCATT
5. ATCTCTAGGTAAAGTTCCGTGAAAGATCGATAGA
6. TCATATAGGTAAAAGCTAGGTGAAAGTCCGATCT
7. CCTACTGGGCCATTCTGAGGTCATTGATCATATG
8. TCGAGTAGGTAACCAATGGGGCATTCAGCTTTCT

1. 3.46
2. -0.195
3. 2.81
4. 3.28
5. 0.649
6. 1.69
7. 3.25
8. 0.488
